Assay: BHET released, HPLC; higher = more BHET released; extreme values may be limits of the assay
Details: PET substrate: aFilm; 60 °C; pH 9.5; 24 h
Attribute Measured: BHET released
Respond with a number, then the unit of measure.

Some sequences with known BHET released results, for comparison:
Seq Text	BHET released
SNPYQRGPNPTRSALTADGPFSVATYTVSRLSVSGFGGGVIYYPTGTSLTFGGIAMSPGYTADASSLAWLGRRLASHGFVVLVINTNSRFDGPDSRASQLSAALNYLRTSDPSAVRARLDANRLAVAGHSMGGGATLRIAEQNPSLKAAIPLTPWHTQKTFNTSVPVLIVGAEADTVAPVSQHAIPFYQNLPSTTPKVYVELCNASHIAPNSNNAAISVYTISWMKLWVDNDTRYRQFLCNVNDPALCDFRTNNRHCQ [LCC-ICCG DAQI]	0.0577 mM
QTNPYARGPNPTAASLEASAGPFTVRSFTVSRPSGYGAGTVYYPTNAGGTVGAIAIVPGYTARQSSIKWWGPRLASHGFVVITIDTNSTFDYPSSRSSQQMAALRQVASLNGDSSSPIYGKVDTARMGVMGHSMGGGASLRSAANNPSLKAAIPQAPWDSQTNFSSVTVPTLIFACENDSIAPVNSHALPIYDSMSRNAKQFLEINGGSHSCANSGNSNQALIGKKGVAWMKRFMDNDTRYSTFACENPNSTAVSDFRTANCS [DuraPETase]	0 mM
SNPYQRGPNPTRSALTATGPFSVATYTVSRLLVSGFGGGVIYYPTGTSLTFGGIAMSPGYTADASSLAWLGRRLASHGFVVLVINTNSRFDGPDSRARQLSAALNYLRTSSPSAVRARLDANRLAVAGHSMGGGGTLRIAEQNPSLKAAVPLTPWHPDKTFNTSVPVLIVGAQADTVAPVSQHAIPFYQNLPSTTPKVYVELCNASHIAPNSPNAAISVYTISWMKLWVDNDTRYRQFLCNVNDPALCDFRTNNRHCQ [LCC-ICCG I6M]	0 mM

Exercise: Suppose we examine the sequence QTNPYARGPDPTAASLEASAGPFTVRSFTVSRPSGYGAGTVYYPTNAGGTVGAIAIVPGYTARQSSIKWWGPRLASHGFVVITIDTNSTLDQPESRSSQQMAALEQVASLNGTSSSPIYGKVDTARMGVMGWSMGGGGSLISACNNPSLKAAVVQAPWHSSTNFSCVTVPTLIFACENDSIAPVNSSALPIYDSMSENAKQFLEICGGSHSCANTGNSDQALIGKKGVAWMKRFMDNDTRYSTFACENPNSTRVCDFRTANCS [Z1-PETase] ; what BHET released value has been reported?
Solution: 0 mM
